- protocolDescription: TOR pathway RTG branch CIT2 reporter changes – S. cerevisiae, GFP fusion, multiplex flow cytometry, primary screen (AID 1870);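 further: barcoded CIT2-GFP strain pooled with four other GFP strains with rapamycin as positive control; median GFP fluorescence per well over plate mean of DMSO wells so 100% = DMSO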
- settings: S. cerevisiae CIT2-GFP expression, 3 h, at 10 µM, active compounds read high
readoutName: percent response of DMSO control (%)
Express it in %; write the number only.

Below, 8 compounds whose answers are already recorded.
In [3]: df
Out[3]:
                                   compound  resultunits  assayresult
0  CCC(C)NCCOc1ccccc1C (stereo unspecified)            %          105
1                  N#Cc1cc2c([nH]c1=O)CCCC2            %          108
2  O=C(c1ccc(Cl)cc1)C1CCCN(C(=O)/C=C/c2ccccn2)C1 (stereo unspecified)            %         97.7
3  COc1ccc2c(c1)C=CC1(O2)N(CCO)c2ccccc2C1(C)C (stereo unspecified)            %          104
4  COc1ccc2c(c1OC)C(=O)N1C2SC[C@H]1C(=O)NC1CC(C)(C)NC(C)(C)C1 (stereo partly specified)            %          111
5   N/C(=N\OC(=O)/C=C/c1ccccc1)c1ccc(Br)cc1            %          107
6   COc1cc(NC(=O)COc2ccccc2)c(OC)cc1NC(C)=O            %          114
7                      CCSC(=O)CCCCCCCCCCCO            %         96.4

## Input Need percent response of DMSO control, item "CN(C)CCC=C1c2ccccc2CCc2ccccc21"
## Output 93.9

## Input // lookup percent response of DMSO control for CN(C)c1ccc(CNCCC(Cc2ccccc2)c2ccco2)cc1 (stereo unspecified)
## Output 108

## Input Name the reported percent response of DMSO control value associated with the compound "COc1ccc(OC)c(C(=O)c2coc3ccc(O)cc23)c1"
## Output 94.4

## Input // lookup percent response of DMSO control for "COc1ccc(S(N)(=O)=O)cc1C(N)=O"
## Output 97.8

## Input Data request, read-out percent response of DMSO control, for COc1ccc(C2CC(c3ccc([N+](=O)[O-])cc3)=NN2C(=O)c2ccccc2)cc1OC (stereo unspecified)
## Output 97

## Input Requested field: percent response of DMSO control. Item: "c1coc(-c2nnc3n2C2(CCCC2)Cc2ccccc2-3)c1"
## Output 97.9

## Input Name the reported percent response of DMSO control value associated with the compound "CCn1ccnc1CN(C)Cc1cn(-c2cccc(C)c2)nc1-c1cccc(F)c1"
## Output 108

## Input Which value of percent response of DMSO control has been reported for COc1ccc(C2NC(=O)c3ccccc3O2)c(OC)c1OC (stereo unspecified) in the records?
## Output 111

## Input percent response of DMSO control lookup needed for "COc1ccc(Cc2noc(CN(C)CC3(N4CCOCC4)CCCCC3)n2)cc1OC" , thanks.
## Output 106

## Input Need percent response of DMSO control, item "Nc1ccc(-c2nc3ncccc3o2)c(Cl)c1"
## Output 97.7

## Input Which measured percent response of DMSO control value corresponds to "CC1=C(C)C(=O)C(CCCCC#CCCCC#CCO)=C(C)C1=O" ?
## Output 99.6

## Input Which percent response of DMSO control value belongs to "CC(C)Oc1cccc(C(=O)N2CCCC2)c1" ?
## Output 94.2
